test system: patients with obstructive sleep apnea; assay: Table 1 summary of efficacy and side effects in sleep apnea, compared with acetazolamide, topiramate and zonisamide data; format: in vivo, human; conditions: T = (P + 2C)/3; Table 1
# key: entry, value: Side effect total rating (T) (scale 0-3)
Answer as a number with no unit attached.

IN: Which Side effect total rating (T) (scale 0-3) is listed for NS(=O)(=O)Cc1noc2ccccc12 [Zonisamide] ?
OUT: 3.3

###

System: patients with obstructive sleep apnea
Test: Table 1 summary of efficacy and side effects in sleep apnea, compared with acetazolamide, topiramate and zonisamide data
Assay type: in vivo, human
Settings: T = (P + 2C)/3; Table 1
Description: The results from Example 1 and 2 are summarized in table 1, below, where the results are further compared with data reflecting the effect of acetazolamide, topiramate and zonisamide in sleep apnea.
endpoint: Side effect total rating (T) (scale 0-3)

# example entries with known answers
1) CC(=O)Nc1nnc(S(N)(=O)=O)s1 [Acetazolamide] ... 2.7
2) NS(=O)(=O)c1ccc(N2CCCCS2(=O)=O)cc1 ... 1

Let's switch to this molecule now.
IN: Which Side effect total rating (T) (scale 0-3) is listed for CC1(C)O[C@@H]2[C@@H](CO[C@@]3(COS(N)(=O)=O)OC(C)(C)O[C@@H]23)O1 [Topiramate] ?
OUT: 3.7
